target: Alpha-1B adrenergic receptor (Homo sapiens, UniProt P35368)
Sequence (P35368 whole entry): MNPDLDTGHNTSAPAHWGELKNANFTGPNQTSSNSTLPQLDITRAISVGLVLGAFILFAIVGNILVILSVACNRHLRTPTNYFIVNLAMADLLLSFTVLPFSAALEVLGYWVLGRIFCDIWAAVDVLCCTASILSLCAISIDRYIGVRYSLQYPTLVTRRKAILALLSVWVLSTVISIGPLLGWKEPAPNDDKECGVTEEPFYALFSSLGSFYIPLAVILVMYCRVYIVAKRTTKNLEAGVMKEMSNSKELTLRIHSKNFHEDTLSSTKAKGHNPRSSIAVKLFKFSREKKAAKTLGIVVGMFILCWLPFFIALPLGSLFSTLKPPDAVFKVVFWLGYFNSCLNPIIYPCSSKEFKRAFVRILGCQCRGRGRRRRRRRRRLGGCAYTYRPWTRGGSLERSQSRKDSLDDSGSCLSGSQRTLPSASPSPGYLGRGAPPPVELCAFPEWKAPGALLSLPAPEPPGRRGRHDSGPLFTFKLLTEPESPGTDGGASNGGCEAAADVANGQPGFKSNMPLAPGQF
The following compounds are listed with their measured Ki values.
Kindly provide the numeric value in µM only, without the unit symbol.

Consider the following illustrative entries.
| compound | scale.unit | Ki |
| --- | --- | --- |
| O=C(CCCN1CC[C@H]2[C@@H](C1)c1cccc3c1N2CCO3)c1ccc(F)cc1 | µM | 0.104 |
| CN1CCN2c3c(cccc31)[C@@H]1CN(CCCc3noc4ccccc34)CC[C@@H]12 | µM | 0.294 |

Okay, now this compound:
Look up Ki with Alpha-1B adrenergic receptor (Homo sapiens, UniProt P35368) for this compound: CN1CCN2c3c(cccc31)[C@@H]1CN(CCCC(=O)c3ccc(F)cc3)CC[C@@H]12.Cc1ccc(S(=O)(=O)O)cc1 [LUMATEPERONE TOSYLATE] 0.031

meta.source: ChEMBL document CHEMBL3232708
